Test system: electrical field gradient (Δψ) across IMVs
Experiment: Δψ assay (oxonol VI fluorescence with IMVs)
Assay type: biochemical, Escherichia coli
Details: electrical field gradient; IMVs A280 = 0.5; NADH
Below is a list of entries, each paired with its recorded IC50 value.
Give the value in nM but do not write nM after it.

Examples from the recorded data:
O=[N+]([O-])c1ccc(O)c(-c2cccs2)c1 = 3000
N#CC1c2ccccc2-n2nncc2CN1Cc1cc(Cl)cc(Cl)c1 (stereo not shown) = 4000

Let's switch to this compound now.
Fetch value of IC50 on electrical field gradient (Δψ) across IMVs for O=C(Nc1cccc(C(F)(F)F)c1)Nc1ncc([N+](=O)[O-])s1 .
400

Values from paper PMC4764201
